assay: Stability of compounds in simulated intestinal fluid (SIF); format: in vitro ADME; conditions: simulated intestinal fluid (3 mg/mL pancreatin), incubation time 6 hr, relative to t=0
METRIC_NAME: % remaining, SIF

Entry CCN(CC)c1ccc(NC(=O)c2cccc(CCCOCCOCCOCCOCCC(=O)NC(CO)(CO)CO)c2)c(-c2cc(C(=O)NCc3cccc(C(F)(F)F)c3)ccn2)c1 , % remaining, SIF reported as 20-40%

Entry CCN(CC)c1ccc(NC(=O)c2cccc(C(=O)N(C)CCN3CCN(CCOCCOCCOCCOCCOCCOCCOC)C(=O)C3)c2)c(-c2cc(C(=O)N[C@H]3CCCc4ccccc43)ccn2)c1 , % remaining, SIF reported as >80%

Entry CCN(CC)c1ccc(NC(=O)c2cccc(CSCCOCCOCCOCCOCCOCCOCCOCCOCCC(=O)O)c2)c(-c2cc(C(=O)N[C@H]3CCCc4ccccc43)ccn2)c1 , % remaining, SIF reported as >80%

New cases:
Entry COCCN(C)C(=O)N1CCN(CCN(C)Cc2cccc(C(=O)Nc3ccc(N4CCCCC4)cc3-c3cc(C(=O)NCc4cccc(C(F)(F)F)c4)ccn3)c2)CC1 , % remaining, SIF reported as 60-80%

Entry COCCNC(=O)[C@H]1CCCN(C(=O)c2cccc(C(=O)Nc3ccc(N4CCCCC4)cc3-c3cc(C(=O)N[C@H]4CCCc5ccccc54)ccn3)c2)C1 , % remaining, SIF reported as >80%
